experiment: ATG_SREBP_CIS: Attagene CIS-FACTORIAL HepG2 Assay for human Sterol Regulatory Element Binding (SREBP) (AID 2282962); settings: HepG2 Attagene cis-factorial SREBP reporter, mRNA; actives raise or lower the signal
The source made the active and inactive calls. How the source made its calls: active means hit-call score of the fitted dose curve at least 0.9, where 1 is the maximum; inactive means score below 0.9.
Could you please pick one outcome from this set? yes (1) = active, no (0) = inactive

These recorded examples may help you get a feel for the data.
| MOLECULE | CLASS_LABEL |
| --- | --- |
| O=S(=O)(c1ccc(Cl)cc1)c1cc(Cl)c(Cl)cc1Cl | yes (1) |
| O=C(O)C1(c2ccc3c(c2)OC[C@H](Cc2ccc(-c4ccccc4)cc2)[C@H]3O)CCCC1 | yes (1) |
| C1CN2CCN1CC2 | no (0) |
| CCC[N+](CCC)(CCC)CCC | no (0) |
| CC(=Cc1ccccc1)[N+](=O)[O-] | no (0) |
| Cc1cc(Cl)ccc1OCCCC(=O)O | no (0) |
| CCOP(=O)(OCC)SCCSCC | no (0) |
| CC1(C)COP(Oc2ccccc2)OC1 | no (0) |

QUERY: Hi, do you know how N#Cc1ccncc1 came out in this test?
RESULT: no (0)

QUERY: Which outcome was entered for the molecule Cc1cc(Cl)ccc1O in this test?
RESULT: no (0)

QUERY: Entry CC(C=O)Cc1ccc2c(c1)OCO2 (stereo not given) : call = ?
RESULT: no (0)

QUERY: Kindly provide the recorded test outcome for the following molecule: O=[N+]([O-])c1cc([As](=O)(O)O)ccc1O
RESULT: no (0)
